# assaySystem: human PKR1 receptors (Homo sapiens (Human))
# Sequence (Q8TCW9 whole entry): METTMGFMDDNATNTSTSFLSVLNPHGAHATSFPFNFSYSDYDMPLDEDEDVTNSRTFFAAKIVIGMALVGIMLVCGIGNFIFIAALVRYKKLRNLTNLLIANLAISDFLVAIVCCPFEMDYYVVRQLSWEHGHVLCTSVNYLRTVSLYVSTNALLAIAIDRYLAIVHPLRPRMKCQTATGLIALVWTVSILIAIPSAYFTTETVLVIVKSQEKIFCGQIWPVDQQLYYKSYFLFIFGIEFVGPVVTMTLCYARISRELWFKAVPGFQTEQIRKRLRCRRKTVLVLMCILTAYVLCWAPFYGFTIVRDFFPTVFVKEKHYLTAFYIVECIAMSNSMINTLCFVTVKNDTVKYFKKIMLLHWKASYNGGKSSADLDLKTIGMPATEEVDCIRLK
# methodNotes: PKR1 antagonist assay: block of PK1-mediated intracellular calcium release (FLIPR Tetra)
# measurementContext: RBL2H3 cells expressing human PKR1; stimulation with PK1 at EC80; calcium fluorescence
property: IC50 (µM)

>  <compound>
CNc1cc(C(=O)N2CCCC(c3ccc(OC)cc3C)C2)cnn1 (stereo not drawn)

>  <IC50 (µM)>
0.13

$$$$
>  <compound>
Cc1ccc(C2CCCN(C(=O)c3ccnc(N(C)C)c3)C2)cc1 (single isomer, unassigned) [Example 50]

>  <IC50 (µM)>
0.99

$$$$
>  <compound>
COc1cc(C(=O)N2CCCC(c3ccc(Cl)cc3C(F)(F)F)C2)ccn1 (stereo not drawn)

>  <IC50 (µM)>
1.37

$$$$
>  <compound>
CCOc1cc(Cl)ccc1C1CCCN(C(=O)c2ccnc(NC)c2)C1 (stereo not drawn)

>  <IC50 (µM)>
0.07

$$$$
>  <compound>
Cc1cc(C(=O)N2CCCC(c3ccc(Cl)cc3C)C2)cnn1 (stereo not drawn)

>  <IC50 (µM)>
1.14

$$$$

P = Cc1cc(Cl)ccc1C1CCCN(C(=O)c2cnn(C(C)C)c2)C1 (stereo not drawn)
Q = CNc1cc(C(=O)N2CCC[C@@H](c3ccc(Cl)cc3C)C2)cnn1 (single isomer, unassigned)
R = CNc1cc(C(=O)N2CCCCC(c3ccc(OC)cc3)C2)ccn1 (stereo not drawn)
S = CN(C)c1cc(C(=O)N2CCCC(c3ccccc3Cl)C2)ccn1 (stereo not drawn)
Incoming: Sort (4 compounds) by IC50: min first. Provide the ranking by listing each label in its place in the requested order.
Outgoing: P, R, Q, S
(P: 0.18 µM, R: 0.45 µM, Q: 1.18 µM, S: 7.79 µM)

a = Cn1cc(C(=O)N2CCCC(c3ccc(Cl)cc3)C2)cn1 (stereo not drawn)
b = COc1ccc(C2CCCN(C(=O)c3ccnc(N(C)C)c3)C2)c(C(F)(F)F)c1 (stereo not drawn)
c = CNc1cc(C(=O)N2CCC[C@H](c3ccc(Cl)cc3C)C2)cnn1
Incoming: Thanks in advance: please rank these 3 entries by IC50, highest to lowest. Provide the ranking by listing each label in its place in the requested order.
Outgoing: a, b, c

I = CN(C)c1cc(C(=O)N2CCCC(c3ccccc3F)C2)ccn1 (stereo not drawn)
II = CN(C)c1cc(C(=O)N2CCCC(c3ccc(Cl)cc3C(F)(F)F)C2)cnn1 (stereo not drawn)
Incoming: Pick one, I or II : lowest reported IC50. Kindly give the label for the entry you pick.
Outgoing: II
(II: 0.11 µM, I: 1.82 µM)
